All values here come from patent US9108947B2.

Molecular target: UniProt:P48048
Experiment: Electrophysiology Assay (whole cell voltage clamp, IonWorks Quattro)
Type: cell-based
Details: Chinese hamster ovary cells stably expressing Kir1.1; block during voltage step to 0 mV; 6 minutes compound incubation; read-out: EP Assay IC50
param class (str): category from IC50; see ranges class A (below 300 nM), class B (300 nM to below 500 nM), class C (500 nM or more)

# compound, system.under.test, category
data = [
    ("Cc1c(C(CO)NCC2CCCCN2C[C@H](O)c2ccc3c(c2C)COC3=O)ccc2c1COC2=O (some centres unmarked)", "UniProt:P48048", "class B"),
]

Kindly state the category for this compound: Cc1c([C@@H](O)CN2CCCCC2CNCC(O)c2ccc(C#N)cn2)ccc2c1COC2=O (some centres unmarked)
class A

// return the class label for Cc1c([C@@H](O)CN2CCCC2CNS(=O)(=O)c2ccc(-n3cnnn3)cc2)ccc2c1COC2=O (some centres unmarked)
class A

Textbook exercise: identify the category of the compound given here, Cc1c([C@@H](O)CN2CCC(CNc3ccc(C#N)cn3)(c3ccccc3)C2)ccc2c1COC2=O (some centres unmarked) , according to its measured value.
class B

Input Cc1c([C@@H](O)CN2CC[C@@H](NCC(O)c3ccc(C#N)cn3)C2)ccc2c1COC2=O (some centres unmarked) ; output its category
class C

Quick check: band for Cc1c([C@@H](O)CN2CCCC2CNCC(O)c2ccc(C#N)cn2)ccc2c1COC2=O (single isomer, unassigned) [Example 9B]
class A

Record Cc1c([C@@H](O)CN2CCC(C)(CNc3ccc(C#N)cn3)C2)ccc2c1COC2=O (some centres unmarked) — which class?
class A

Determine which band this compound sits in: `Cc1c([C@@H](O)CN2CC[C@@H](NS(=O)(=O)c3ccc(C#N)cc3)C2)ccc2c1COC2=O`
class C

Assign a category based on measured IC50 for Cc1c([C@@H](O)CN[C@@H]2CCN(CC(O)c3ccc(C#N)cn3)C2)ccc2c1COC2=O (some centres unmarked) and give only the class name.
class C

Returns: class label. Input: `Cc1c([C@@H](O)CN2CC(CNS(=O)(=O)c3ccc(C#N)cc3)C2)ccc2c1COC2=O`
class A

Band for Cc1c([C@@H](O)CN2CCCC2CNc2ccc(C#N)cn2)ccc2c1COC2=O (some centres unmarked) ?
class A

Could you tell me which band Cc1c(C(O)CN2CC[C@@H](NC[C@H](O)c3ccc4c(c3C)COC4=O)C2)ccc2c1COC2=O (stereo in doubt) belongs to?
class C

Would you mind sorting Cc1c(C(CO)NCC2CCCN2C[C@H](O)c2ccc3c(c2C)COC3=O)ccc2c1COC2=O (some centres unmarked) into the appropriate category?
class A

Place this compound in its band: Cc1c([C@@H](O)CNC2(C3CCN(C[C@H](O)c4ccc5c(c4C)COC5=O)C3)CCC2)ccc2c1COC2=O (some centres unmarked)
class B

Looking at Cc1c([C@@H](O)CNC2C[C@H]3C[C@@H]2N(C[C@H](O)c2ccc4c(c2C)COC4=O)C3)ccc2c1COC2=O (single isomer, unassigned) [Example 17A] , which class would you pick?
class C

Which IC50 band matches Cc1c([C@@H](O)CN2CCCC2CNCC(O)c2ccc(C#N)cn2)ccc2c1COC2=O (single isomer, unassigned) [Example 9A] ?
class B

---

Target: Kir1.1 (ROMK1) (Homo sapiens (Human), UniProt P48048)
Sequence (P48048 whole entry, species assumed): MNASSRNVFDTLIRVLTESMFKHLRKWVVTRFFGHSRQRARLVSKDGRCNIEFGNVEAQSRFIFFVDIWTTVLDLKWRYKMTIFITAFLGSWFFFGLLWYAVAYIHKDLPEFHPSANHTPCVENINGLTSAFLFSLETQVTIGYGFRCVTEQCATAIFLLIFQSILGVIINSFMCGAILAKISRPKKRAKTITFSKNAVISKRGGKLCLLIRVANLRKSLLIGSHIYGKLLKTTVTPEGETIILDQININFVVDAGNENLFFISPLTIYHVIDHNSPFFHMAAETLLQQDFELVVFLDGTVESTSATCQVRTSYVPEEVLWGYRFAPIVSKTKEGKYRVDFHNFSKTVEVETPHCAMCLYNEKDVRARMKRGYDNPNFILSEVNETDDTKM
Assay: Electrophysiology Assay (whole cell voltage clamp, IonWorks Quattro)
Type: cell-based
measure.name: IC50 (nM)
Answer in nM, number only, no unit symbol.

Lab note: measured IC50 of Cc1c([C@@H](O)CNC2CCCN(c3ccc(C#N)cn3)C2)ccc2c1COC2=O (stereo partly shown) was 52
